- assay_system: hNAMPT protein (Homo sapiens (Human), UniProt P43490)
- Sequence (P43490 whole entry): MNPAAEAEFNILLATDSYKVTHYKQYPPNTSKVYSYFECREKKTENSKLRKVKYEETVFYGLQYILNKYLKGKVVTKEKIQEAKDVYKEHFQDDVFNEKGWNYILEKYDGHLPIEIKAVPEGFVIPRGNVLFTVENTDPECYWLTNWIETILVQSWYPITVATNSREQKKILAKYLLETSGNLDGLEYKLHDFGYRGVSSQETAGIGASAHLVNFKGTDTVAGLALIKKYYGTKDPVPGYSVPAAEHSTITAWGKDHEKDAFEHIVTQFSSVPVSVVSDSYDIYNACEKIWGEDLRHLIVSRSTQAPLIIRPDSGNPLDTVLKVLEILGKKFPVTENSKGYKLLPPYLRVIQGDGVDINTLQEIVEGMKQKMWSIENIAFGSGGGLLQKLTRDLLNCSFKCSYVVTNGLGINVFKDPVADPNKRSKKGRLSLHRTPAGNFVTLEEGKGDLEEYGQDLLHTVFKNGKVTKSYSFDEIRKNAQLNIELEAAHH
- assay_name: NAMPT enzyme assay (TR-FRET/HTRF, BodiPY ligand, anti 6His-Tb)
- Assay type: binding
- experimental_parameters: NAMPT IC50 range class; read-out: IC50
Measured IC50, listed per entry.

Lab note: CO[C@H]1C[C@H](Oc2nc3ccc(C(=O)NCCCc4ncc[nH]4)cc3nc2-c2ccc(F)cc2)C1 gave IC50 of < 100 nM

Lab note: Cc1nc(C)c(-c2nc3ccc(C(=O)NCCCn4ccnc4)cc3nc2-c2ccccc2)s1 gave IC50 of 100 to 500 nM

Lab note: CC(C)Sc1nc2ccc(C(=O)NCCCc3ncc[nH]3)cc2nc1-c1ccc(F)cc1 gave IC50 of 100 to 500 nM

Lab note: CC(C)(C)OC(=O)NCc1ccc(-c2nc3cc(C(=O)NCCCn4ccnc4)ccc3nc2-c2ccccc2)cc1 gave IC50 of 2000 to 10000 nM

***
Lab note: O=C(NCCCn1ccnc1)c1ccc2nc(-c3ccccc3)c(-c3ccc(Cl)cc3)nc2c1 gave IC50 of < 100 nM

Lab note: O=C(NCCCc1ncc[nH]1)c1ccc2nc(-n3ncc4ccccc43)c(-c3ccc(F)cc3)nc2c1 gave IC50 of < 100 nM

Lab note: O=C(NCCCn1ccnc1)c1ccc2nc(-c3ccccc3Cl)c(-c3ccccc3Cl)nc2c1 gave IC50 of 2000 to 10000 nM

Lab note: O=C(NCCCn1ccnc1)c1ccc2nc(N3CCC4(COC4)C3)c(-c3ccccc3)nc2c1 gave IC50 of 500 to 1000 nM

Lab note: O=C(NCCCn1ccnc1)c1ccc2nc(-c3ccccc3)c(N3CCCC(O)C3)nc2c1 (stereo not drawn) gave IC50 of 1000 to 2000 nM

Lab note: CC1(C)CN(c2nc3cc(C(=O)NCCCn4ccnc4)ccc3nc2-c2ccccc2)CCO1 gave IC50 of 500 to 1000 nM

Lab note: O=C(NCCCn1ccnc1)c1ccc2nc(-c3ccc4[nH]ccc4c3)c(-c3ccccc3)nc2c1 gave IC50 of 100 to 500 nM

Lab note: O=C(NCCc1ncc[nH]1)c1ccc2nc(N3CCC(N4CCOCC4)CC3)c(-c3ccccc3)nc2c1 gave IC50 of 100 to 500 nM

Lab note: O=C(NCCOc1cccnc1)c1ccc2nc(-c3ccc(F)cc3)c(-c3ccc(F)cc3)nc2c1 gave IC50 of < 100 nM

Lab note: O=C(NCCCc1c[nH]cn1)c1ccc2nc(N3CCCCC3)c(-c3ccc(F)cc3)nc2c1 gave IC50 of < 100 nM

Lab note: COc1cc(-c2nc3cc(C(=O)NCCCc4ncc[nH]4)ccc3nc2OC(C)C)ccc1F gave IC50 of < 100 nM

---

Measured IC50, listed per entry.
- assay_system: hNAMPT protein (Homo sapiens (Human))
- assay_name: NAMPT enzyme assay (TR-FRET/HTRF, BodiPY ligand, anti 6His-Tb)
- Format: binding
- experimental_parameters: NAMPT IC50 range class; read-out: IC50

For the molecule N#Cc1nc2ccc(C(=O)NCCCn3ccnc3)cc2nc1-c1ccccc1 , the measured IC50 on hNAMPT protein (Homo sapiens (Human)) was 2000 to 10000 nM

For the molecule CCOC(=O)CCc1ccc(-c2nc3ccc(C(=O)NCCCn4ccnc4)cc3nc2-c2ccccc2)cc1 , the measured IC50 on hNAMPT protein (Homo sapiens (Human)) was 100 to 500 nM

For the molecule Cn1cc2c(n1)CN(c1nc3cc(C(=O)NCCCn4ccnc4)ccc3nc1-c1ccccc1)CC2 , the measured IC50 on hNAMPT protein (Homo sapiens (Human)) was 1000 to 2000 nM

For the molecule CN1CCC(Oc2nc3ccc(C(=O)NCCCc4ncc[nH]4)cc3nc2-c2ccc(F)cc2)CC1 , the measured IC50 on hNAMPT protein (Homo sapiens (Human)) was < 100 nM

For the molecule O=C(NCCCc1ncc[nH]1)c1ccc2nc(-c3ccc(F)cc3)c(-c3ccc(Cl)cc3)nc2c1 , the measured IC50 on hNAMPT protein (Homo sapiens (Human)) was < 100 nM

For the molecule O=C(NCCc1ccccn1)c1ccc2nc(-c3ccc(F)cc3)c(-c3ccc(F)cc3)nc2c1 , the measured IC50 on hNAMPT protein (Homo sapiens (Human)) was 1000 to 2000 nM

For the molecule O=C(NCCCn1ccnc1)c1ccc2nc(N3CCN4CCCC4C3)c(-c3ccccc3)nc2c1 (centres unmarked) , the measured IC50 on hNAMPT protein (Homo sapiens (Human)) was 100 to 500 nM

Now consider the entry below.
For the molecule COc1ccc(-c2nc3ccc(C(=O)NCCCn4ccnc4)cc3nc2-c2ccccc2)cc1 , the measured IC50 on hNAMPT protein (Homo sapiens (Human)) was 100 to 500 nM

---

- assay_system: hNAMPT protein (Homo sapiens (Human), UniProt P43490)
- assay_name: NAMPT enzyme assay (TR-FRET/HTRF, BodiPY ligand, anti 6His-Tb)
- Assay type: binding
- experimental_parameters: NAMPT inhibition at compound concentration 1 μM; read-out: Percent Inhibition
Measured inhibition at 1 µM, listed per entry.
Give just the number in %; leave the unit off.

Reference set, count: 6
For the molecule Cc1ccc(-c2nc3cc(C(=O)NCCCc4ncc[nH]4)ccc3nc2-c2ccc(F)cc2)cc1 , the measured inhibition at 1 µM on hNAMPT protein (Homo sapiens (Human), UniProt P43490) was 80

For the molecule CCOc1cccc(-c2nc3cc(C(=O)NCCCc4ncc[nH]4)ccc3nc2-c2ccc(F)cc2)c1 , the measured inhibition at 1 µM on hNAMPT protein (Homo sapiens (Human), UniProt P43490) was 99

For the molecule CC(C)COc1nc2ccc(C(=O)NCCCc3ncc[nH]3)cc2nc1-c1ccc(F)cc1 , the measured inhibition at 1 µM on hNAMPT protein (Homo sapiens (Human), UniProt P43490) was 96

For the molecule O=C(NCCCc1ncc[nH]1)c1ccc2nc(-c3ccc(F)cc3)c(-c3ccc(F)c(Cl)c3)nc2c1 , the measured inhibition at 1 µM on hNAMPT protein (Homo sapiens (Human), UniProt P43490) was 97

For the molecule Nc1ccc(CCCNC(=O)c2ccc3nc(-c4ccc(F)cc4)c(-c4ccc(F)cc4)nc3c2)cn1 , the measured inhibition at 1 µM on hNAMPT protein (Homo sapiens (Human), UniProt P43490) was 52

For the molecule Cc1ccc(-c2nc3cc(C(=O)NCCCc4ncc[nH]4)ccc3nc2-c2ccc(F)cc2)s1 , the measured inhibition at 1 µM on hNAMPT protein (Homo sapiens (Human), UniProt P43490) was 85

Now consider the entry below.
For the molecule Cc1ccc(C#N)cc1-c1nc2cc(C(=O)NCCCc3ncc[nH]3)ccc2nc1-c1ccc(F)cc1 , the measured inhibition at 1 µM on hNAMPT protein (Homo sapiens (Human), UniProt P43490) was 98

---

- assay_system: hNAMPT protein (Homo sapiens (Human), UniProt P43490)
- assay_name: NAMPT enzyme assay (TR-FRET/HTRF, BodiPY ligand, anti 6His-Tb)
- Format: binding
- experimental_parameters: NAMPT inhibition, IC50 range class; read-out: IC50
pIC50: −log10 of the molar value.
Measured pIC50, listed per entry.

Lab note: Cc1ccc(-c2nc3cc(C(=O)NCCCc4ncc[nH]4)ccc3nc2-c2ccc(F)cc2)cn1 gave pIC50 of 6.30 to 7.00

***
Lab note: CN1CCC(COc2nc3ccc(C(=O)NCCCc4ncc[nH]4)cc3nc2-c2ccc(F)cc2)C1 (stereo not drawn) gave pIC50 of > 7.00

Lab note: O=C(NCCCc1ncc[nH]1)c1ccc2nc(-c3ccc(F)cc3)c(-c3cc(Cl)cnc3F)nc2c1 gave pIC50 of 6.30 to 7.00

---

- assay_system: hNAMPT protein (Homo sapiens (Human))
- assay_name: NAMPT enzyme assay (TR-FRET/HTRF, BodiPY ligand, anti 6His-Tb)
- Type: binding
- experimental_parameters: NAMPT IC50 range class; read-out: IC50
measurement_kind: IC50

Reference set, count: 6
For the compound O=C(NCc1ccc2nccn2c1)c1ccc2nc(N3CCOCC3)c(-c3ccc(F)cc3)nc2c1 [Compound I-147] , the measured IC50 on hNAMPT protein (Homo sapiens (Human)) was < 100 nM

For the compound N#Cc1cccc(-c2nc3cc(C(=O)NCCCn4ccnc4)ccc3nc2-c2ccccc2)c1 [Compound I-157] , the measured IC50 on hNAMPT protein (Homo sapiens (Human)) was 1000 to 2000 nM

For the compound CC(=O)c1ccc(-c2nc3cc(C(=O)NCCCc4ncc[nH]4)ccc3nc2-c2ccc(F)cc2)s1 [Compound I-370] , the measured IC50 on hNAMPT protein (Homo sapiens (Human)) was 500 to 1000 nM

For the compound O=C(c1ccc2nc(-c3ccc(F)cc3)c(-c3ccc(F)cc3)nc2c1)N1CCC(c2cnccn2)C1 (stereo not drawn) [Compound I-40] , the measured IC50 on hNAMPT protein (Homo sapiens (Human)) was 2000 to 10000 nM

For the compound O=C(NCCCn1ccnc1)c1ccc2nc(-c3ccccc3)c(-c3ccsc3)nc2c1 [Compound I-174] , the measured IC50 on hNAMPT protein (Homo sapiens (Human)) was 100 to 500 nM

For the compound O=C(NCCCn1ccnc1)c1ccc2nc(N3CCC(n4c(=O)[nH]c5ccccc54)CC3)c(-c3ccccc3)nc2c1 [Compound I-280] , the measured IC50 on hNAMPT protein (Homo sapiens (Human)) was 100 to 500 nM

***
For the compound O=C(NCc1ccc2nccn2c1)c1ccc2nc(N3CCC(N4CCOCC4)CC3)c(-c3ccc(F)cc3)nc2c1 [Compound I-64] , the measured IC50 on hNAMPT protein (Homo sapiens (Human)) was < 100 nM

For the compound O=C(c1ccc2nc(-c3ccc(F)cc3)c(-c3ccc(F)cc3)nc2c1)N1CCc2[nH]ccc2C1 [Compound I-75] , the measured IC50 on hNAMPT protein (Homo sapiens (Human)) was 2000 to 10000 nM

The reported numbers originate from patent US10144742B2.
